Target: human PAD4 (Homo sapiens (Human))
Assay: In Vitro PAD4 BAEE Biochemical Assay
Details: human PAD4, BAEE substrate; 5 nM PAD4, 2 mM calcium chloride, 3 mM BAEE; geometric mean of multiple experiments
Overview of reported IC50 across a group of molecules:
Record the value in nM, omitting the unit from your answer.

Example molecules with recorded IC50:
COc1cc(C(=O)N2[C@H]3CC[C@@H]2[C@H](N)C3)cc2nc(-c3cc4ccc([C@@H](C)NC(=O)C5CC5(F)F)cc4n3CC3CC3)n(C3CC3)c12 (stereo partly drawn) [Example 152]: 63
COc1cc(C(=O)N2[C@H]3CC[C@@H]2[C@H](N)C3)cc2nc(-c3cc4ccc([C@@H](C)NC(=O)c5cnn(C)c5)nc4n3CC3CC3)n(C)c12 [Example 206]: 45.5

For the next question, use this molecule.
The reported value for COc1cc(C(=O)N2C[C@H](N)CCN2C)cc2nc(-c3cc4ccc([C@@H](C)NC(=O)Cc5ccccc5)nc4n3CC3CC3)n(C)c12 [Example 158] in terms of IC50 is 76.2

----------
Molecular target: human PAD4 (Homo sapiens (Human), UniProt Q9UM07)
Sequence (Q9UM07 2-663): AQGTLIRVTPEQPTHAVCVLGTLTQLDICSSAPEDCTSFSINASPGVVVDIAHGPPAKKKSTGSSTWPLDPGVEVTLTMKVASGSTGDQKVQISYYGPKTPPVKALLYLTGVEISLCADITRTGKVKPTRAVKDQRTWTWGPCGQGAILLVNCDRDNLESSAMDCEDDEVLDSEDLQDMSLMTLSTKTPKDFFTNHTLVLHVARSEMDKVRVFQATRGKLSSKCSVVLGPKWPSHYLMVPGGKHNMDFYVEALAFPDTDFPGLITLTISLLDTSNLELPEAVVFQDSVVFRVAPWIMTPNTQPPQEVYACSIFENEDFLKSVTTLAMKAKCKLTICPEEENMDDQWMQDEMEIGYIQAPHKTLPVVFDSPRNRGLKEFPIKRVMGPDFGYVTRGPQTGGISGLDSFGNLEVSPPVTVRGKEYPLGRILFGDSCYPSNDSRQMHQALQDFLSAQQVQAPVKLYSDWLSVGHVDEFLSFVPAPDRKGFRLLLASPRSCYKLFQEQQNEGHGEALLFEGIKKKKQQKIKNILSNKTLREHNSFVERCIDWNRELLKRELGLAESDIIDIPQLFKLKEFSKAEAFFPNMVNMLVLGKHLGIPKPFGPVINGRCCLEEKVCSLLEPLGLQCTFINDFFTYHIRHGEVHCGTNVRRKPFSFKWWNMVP
Assay: In Vitro PAD4 BAEE Biochemical Assay
Settings: human PAD4, BAEE substrate; 5 nM PAD4, 2 mM calcium chloride, 3 mM BAEE; geometric mean of multiple experiments
assay metric: IC50 (nM)
Record the value in nM, omitting the unit from your answer.

Example compounds with recorded IC50:
COc1cc(C(=O)N2C[C@H](N)CCN2C)cc2nc(-c3cc4ccc([C@@H](C)NC(=O)c5cc(F)ccc5C)nc4n3CC3CC3)n(C)c12: 116
COc1cc(C(=O)N2C[C@H](N)CCN2C)cc2nc(-c3cc4ccc([C@@H](C)NC(=O)c5ccc(C)nc5C)nc4n3CC3CC3)n(C)c12: 100

The reported value for `CCCN(c1ccc2cc(-c3nc4cc(C(=O)N5CCC[C@@H](N)C5)cc(OC)c4n3C)n(CC3CC3)c2n1)S(C)(=O)=O` in terms of IC50 is 330

----------
Overview of reported IC50 across a group of molecules:
Biological target: human PAD4 (Homo sapiens (Human))
Experiment: In Vitro PAD4 BAEE Biochemical Assay
Conditions: recombinant PAD4 5 nM, 2 mM calcium chloride, 3 mM BAEE substrate; geometric mean of multiple experiments
Record the value in nM, omitting the unit from your answer.

Example molecules with recorded IC50:
COc1cc(C(=O)N2C[C@H](N)[C@@H]3CC[C@H]2C3)cc2nc(-c3cc4ccc([C@@H](C)NC(=O)c5cnc(C(F)(F)F)nc5)nc4n3CC3CC3)n(C)c12: 140
COc1cc(C(=O)N2C[C@H](N)[C@@H]3CC[C@H]2C3)cc2nc(-c3cc4ccc([C@@H](C)NC(=O)C56CC(F)(C5)C6)nc4n3CC3(F)CC3)n(C)c12: 91.9
COc1cc(C(=O)N2C[C@H](N)[C@@H]3CC[C@H]2C3)cc2nc(-c3cc4ccc([C@@H](C)NC(=O)C56CC(F)(C5)C6)nc4n3CC3CC3)n(C3CC3)c12: 124

The reported value for `COc1cc(C(=O)N2C[C@H](N)[C@@H]3CC[C@H]2C3)cc2nc(-c3cc4ccc([C@@H](C)NC(=O)c5ccccc5Cl)nc4n3CC3CC3)n(C)c12` in terms of IC50 is 80.7

The reported value for `COc1cc(C(=O)N2C[C@H](N)[C@@H]3CC[C@H]2C3)cc2nc(-c3cc4ccc([C@@H](C)NC(=O)C5(C(F)(F)F)CC5)nc4n3CC3CC3)n(C)c12` in terms of IC50 is 174

The reported value for `C[C@@H](NC(=O)C12CC(C#N)(C1)C2)c1ccc2cc(-c3nc4cc(C(=O)N5C[C@H](N)[C@@H]6CC[C@H]5C6)cc(F)c4n3C3CC3)n(CC3CC3)c2n1` in terms of IC50 is 78.2

The reported value for `COc1cc(C(=O)N2C[C@H](N)[C@@H]3CC[C@H]2C3)cc2nc(-c3cc4ccc([C@@H](C)NC(=O)c5cnn(C(F)(F)F)c5)nc4n3CC3CC3)n(C)c12` in terms of IC50 is 82.6

The reported value for `COc1cc(C(=O)N2C[C@H](N)[C@@H]3CC[C@H]2C3)cc2nc(-c3cc4ccc([C@@H](C)NC(=O)c5ccc(C(F)F)nc5)nc4n3CC3CC3)n(C3CC3)c12` in terms of IC50 is 111

----------
Target: human PAD4 (Homo sapiens (Human))
Assay: In Vitro PAD4 BAEE Biochemical Assay
Details: human PAD4, BAEE substrate; 5 nM PAD4, 2 mM calcium chloride, 3 mM BAEE; geometric mean of multiple experiments
Source text: The PCR product was ligated into linearized pET-SUMO vector (Invitrogen, Carlsbad, CA), which is part of the Champion™ pET SUMO Protein Expression System. […] The enzymatic activity of human PAD4 was monitored in a biochemical assay in the presence or absence of compounds using the small peptidyl arginine mimic BAEE (Nα-Benzoyl-L-arginine ethyl ester hydrochloride) as substrate. […] Levels of ammonia were monitored by using an amine coupling reaction and were indicative of PAD4 enzymatic activity. […]
assay metric: pIC50
Answer as the number alone; pIC50 is minus log10 of concentration in mol/L.

The reported value for COc1cc(C(=O)N2CCC[C@@H](N)C2)cc2nc(-c3cc4ccc(S(C)(=O)=O)nc4n3CC3CC3)n(C)c12 [Example 253] in terms of pIC50 is 6.10

The reported value for COc1cc(C(=O)N2C[C@H](N)CCN2C)cc2nc(-c3cc4ccc([C@@H](C)NC(=O)c5nccc(C(F)(F)F)n5)nc4n3CC3CC3)n(C)c12 [Example 182] in terms of pIC50 is 6.98

The reported value for COc1cc(C(=O)N2C[C@H](N)CCN2C)cc2nc(-c3cc4ccc([C@@H](C)NC(=O)[C@H](C)c5ccccc5)nc4n3CC3CC3)n(C)c12 [Example 164] in terms of pIC50 is 6.83

The reported value for COc1cc(C(=O)N2C[C@H](N)CC[C@@H]2C)cc2nc(-c3cc4ccc(C(=O)N(C)C)nc4n3CC3CC3)n(C)c12 [Example 250] in terms of pIC50 is 6.06

The reported value for COc1cc(C(=O)N2C[C@H](N)CCN2C)cc2nc(-c3cc4ccc([C@@H](C)NC(=O)c5ccc(F)cc5)nc4n3CC3CC3)n(C)c12 [Example 155] in terms of pIC50 is 6.78

The reported value for COc1cc(C(=O)N2CCC[C@@H](N)C2)cc2nc(-c3cc4ccc([C@@H](C)NC(=O)C(C)(C)C)nc4n3CC3CC3)n(C)c12 [Example 119] in terms of pIC50 is 7.11

----------
Molecular target: human PAD4 (Homo sapiens (Human), UniProt Q9UM07)
Experiment: In Vitro PAD4 BAEE Biochemical Assay
Conditions: human PAD4, BAEE substrate; 5 nM PAD4, 2 mM calcium chloride, 3 mM BAEE; geometric mean of multiple experiments
assay metric: pIC50
Answer as the number alone; pIC50 is minus log10 of concentration in mol/L.

Example molecules with recorded pIC50:
COc1cc(C(=O)N[C@H]2CCNC2)cc2nc(-c3cc4ccc(N(C(F)F)S(C)(=O)=O)nc4n3CC3CC3)n(C)c12: 4.30
COc1cc(C(=O)N2[C@H]3CC[C@@H]2[C@H](N)C3)cc2nc(-c3cc4ccc(N(C(C)C)S(C)(=O)=O)nc4n3CC3CC3)n(C)c12: 7.23

For the next question, use this molecule.
The reported value for `COc1cc(C(=O)N2C[C@H](N)CCN2C)cc2nc(-c3cc4ccc([C@@H](C)NC(=O)C56CC(C5)C6)nc4n3CC3CC3)n(C)c12` in terms of pIC50 is 7.09

----------
Overview of reported log10 IC50 across a group of compounds:
Target: human PAD4 (Homo sapiens (Human), UniProt Q9UM07)
Test: In Vitro PAD4 BAEE Biochemical Assay
Settings: human PAD4, BAEE substrate; 5 nM PAD4, 2 mM calcium chloride, 3 mM BAEE; geometric mean of multiple experiments
Quick note: numbers are log10 of IC50, with nM as the unit.

CS(=O)(=O)N(c1ccc2cc(-c3nc4cc(C(=O)N5[C@@H]6CC[C@@H](N)[C@H]5CC6)ccc4n3C3CC3)n(CC3CC3)c2n1)C(F)F: 1.56

The reported value for `CCN(C(C)=O)c1ccc2cc(-c3nc4cc(C(=O)N5CCC[C@@H](N)C5)cc(OC)c4n3C)n(CC3CC3)c2n1` in terms of log10 IC50 is 2.58

The reported value for `COc1cc(C(=O)N2C[C@H](N)CCN2C)cc2nc(-c3cc4ccc(C(C)(C)NC(=O)c5ccccc5)nc4n3CC3CC3)n(C)c12` in terms of log10 IC50 is 2.30

The reported value for `COc1cc(C(=O)N2[C@H]3CC[C@@H]2[C@H](N)C3)cc2nc(-c3cc4ccc([C@@H](C)N5CCCC5=O)nc4n3CC3CC3)n(C3CC3)c12` in terms of log10 IC50 is 1.50

The reported value for `COc1cc(C(=O)N2C[C@H](N)CCN2C)cc2nc(-c3cc4ccc([C@@H](C)NC(=O)c5ccc(F)cc5C)nc4n3CC3CC3)n(C)c12` in terms of log10 IC50 is 2.01

The reported value for `COc1cc(C(=O)N2CCC[C@@H](N)C2)cc2nc(-c3cc4ccc(N(CC(F)(F)F)S(C)(=O)=O)nc4n3CC3CC3)n(C)c12` in terms of log10 IC50 is 2.50

FYI, the data here is from patent US11878965B2.
